Can you tell me PBM binding z-score for the items I'm about to list?
- System: RARa:RXR (NR concentration 270 nM, RXRa partner concentration 90 nM)
- Assay text: PBM binding z-score (relative to random genomic background probes); higher = stronger binding; sequences stand for … in GC…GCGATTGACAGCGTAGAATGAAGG

The sequence listed as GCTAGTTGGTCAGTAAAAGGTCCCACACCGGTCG shows PBM binding z-score equal to 0.0824

The sequence listed as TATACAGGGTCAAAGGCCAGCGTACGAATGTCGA shows PBM binding z-score equal to 6.38

The sequence listed as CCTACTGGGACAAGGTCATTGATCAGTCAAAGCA shows PBM binding z-score equal to 3.89

The sequence listed as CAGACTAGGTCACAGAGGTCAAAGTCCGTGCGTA shows PBM binding z-score equal to 7.28

The sequence listed as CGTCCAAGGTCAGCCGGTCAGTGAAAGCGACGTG shows PBM binding z-score equal to 3.71

The sequence listed as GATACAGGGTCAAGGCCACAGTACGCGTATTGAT shows PBM binding z-score equal to 4.64

The sequence listed as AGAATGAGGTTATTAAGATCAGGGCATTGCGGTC shows PBM binding z-score equal to 1.79

The sequence listed as CAGCGTAGGTCAGGGCCAGTATAGGAGGAACGTT shows PBM binding z-score equal to 1.04

The sequence listed as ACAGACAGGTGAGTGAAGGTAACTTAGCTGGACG shows PBM binding z-score equal to 0.132

The sequence listed as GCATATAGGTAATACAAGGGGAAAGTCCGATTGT shows PBM binding z-score equal to 0.489

The sequence listed as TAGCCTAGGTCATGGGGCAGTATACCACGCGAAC shows PBM binding z-score equal to 3.21

The sequence listed as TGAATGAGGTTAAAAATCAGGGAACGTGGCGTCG shows PBM binding z-score equal to 1.45

----------
- Tested on: RARa:RXR (NR concentration 270 nM, RXRa partner concentration 90 nM)
- Assay text: PBM binding z-score (relative to random genomic background probes); higher = stronger binding; sequences stand for … in GC…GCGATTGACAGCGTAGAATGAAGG
Can you tell me PBM binding z-score for the items I'm about to list?
Kindly provide the number alone.

The sequence listed as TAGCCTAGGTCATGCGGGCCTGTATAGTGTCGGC shows PBM binding z-score equal to 2.14

The sequence listed as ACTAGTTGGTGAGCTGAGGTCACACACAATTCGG shows PBM binding z-score equal to 4.65

The sequence listed as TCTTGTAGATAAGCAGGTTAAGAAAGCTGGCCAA shows PBM binding z-score equal to 0.402

The sequence listed as CAAACTAGTTCACCGGAAGGTCAAAGTCCGCATG shows PBM binding z-score equal to 5.72

The sequence listed as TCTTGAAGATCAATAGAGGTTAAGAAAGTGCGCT shows PBM binding z-score equal to 1.81

The sequence listed as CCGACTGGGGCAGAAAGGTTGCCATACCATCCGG shows PBM binding z-score equal to -0.0627

The sequence listed as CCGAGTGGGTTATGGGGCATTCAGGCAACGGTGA shows PBM binding z-score equal to 0.0956

The sequence listed as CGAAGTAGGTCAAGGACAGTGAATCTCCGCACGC shows PBM binding z-score equal to 2.46

The sequence listed as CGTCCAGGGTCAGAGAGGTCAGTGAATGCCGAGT shows PBM binding z-score equal to 5.52

The sequence listed as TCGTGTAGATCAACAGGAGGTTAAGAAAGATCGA shows PBM binding z-score equal to 1.06

The sequence listed as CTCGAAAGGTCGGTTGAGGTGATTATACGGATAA shows PBM binding z-score equal to 2.2

The sequence listed as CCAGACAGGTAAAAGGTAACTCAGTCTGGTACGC shows PBM binding z-score equal to 0.712

----------
- Test system: PPARg:RXRa DBDmut IVT, anti-RXR (DBD mutation: RXRa K156A/R161A, NR concentration 270 nM, RXRa partner concentration 90 nM)
- Assay text: PBM binding z-score (relative to random genomic background probes); higher = stronger binding; sequences stand for … in GC…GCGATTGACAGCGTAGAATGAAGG
# cutoff 1 applies to PBM binding z-score; >= gives true (1), < gives false (0)

Does the sequence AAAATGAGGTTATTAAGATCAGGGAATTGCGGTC have recorded PBM binding z-score that is 1 or more? true (1)

Does the sequence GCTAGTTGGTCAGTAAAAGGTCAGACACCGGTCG have recorded PBM binding z-score that is 1 or more? false (0)

Does the sequence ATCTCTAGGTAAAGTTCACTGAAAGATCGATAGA have recorded PBM binding z-score that is 1 or more? true (1)

Does the sequence TAGCTTAGGTCATTGGGCCAGTATAGTACGCATC have recorded PBM binding z-score that is 1 or more? true (1)

Does the sequence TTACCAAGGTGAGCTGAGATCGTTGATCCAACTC have recorded PBM binding z-score that is 1 or more? true (1)

Does the sequence CGTCCAAGGCCAAAGGTCAGTGAAGAGATGACGG have recorded PBM binding z-score that is 1 or more? false (0)

Does the sequence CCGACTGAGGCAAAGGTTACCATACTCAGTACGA have recorded PBM binding z-score that is 1 or more? false (0)

Does the sequence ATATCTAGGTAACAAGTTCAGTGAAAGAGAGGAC have recorded PBM binding z-score that is 1 or more? true (1)

Does the sequence CAAACTAGGTCACGAAAGGTCAATGTCGAATGAC have recorded PBM binding z-score that is 1 or more? true (1)

Does the sequence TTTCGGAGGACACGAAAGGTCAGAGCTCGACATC have recorded PBM binding z-score that is 1 or more? false (0)

Does the sequence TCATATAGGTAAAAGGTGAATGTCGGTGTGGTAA have recorded PBM binding z-score that is 1 or more? true (1)

Does the sequence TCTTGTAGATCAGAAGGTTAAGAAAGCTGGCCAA have recorded PBM binding z-score that is 1 or more? true (1)

Does the sequence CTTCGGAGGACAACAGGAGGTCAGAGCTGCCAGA have recorded PBM binding z-score that is 1 or more? false (0)

Does the sequence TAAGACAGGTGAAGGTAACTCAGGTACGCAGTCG have recorded PBM binding z-score that is 1 or more? false (0)

Does the sequence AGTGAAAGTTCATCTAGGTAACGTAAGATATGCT have recorded PBM binding z-score that is 1 or more? false (0)

Does the sequence TCTGCTAGGTCGGTTGGTCAGCTAACGAGCTGCC have recorded PBM binding z-score that is 1 or more? false (0)

Does the sequence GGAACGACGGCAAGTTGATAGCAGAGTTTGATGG have recorded PBM binding z-score that is 1 or more? false (0)

Does the sequence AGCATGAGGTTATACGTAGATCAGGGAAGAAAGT have recorded PBM binding z-score that is 1 or more? false (0)

Does the sequence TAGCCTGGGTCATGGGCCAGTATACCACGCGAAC have recorded PBM binding z-score that is 1 or more? false (0)

Does the sequence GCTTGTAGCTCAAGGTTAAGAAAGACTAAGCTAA have recorded PBM binding z-score that is 1 or more? false (0)

Does the sequence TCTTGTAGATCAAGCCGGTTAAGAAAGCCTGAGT have recorded PBM binding z-score that is 1 or more? true (1)

Does the sequence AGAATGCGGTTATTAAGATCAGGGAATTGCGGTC have recorded PBM binding z-score that is 1 or more? false (0)

Does the sequence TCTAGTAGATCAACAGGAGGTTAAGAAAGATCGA have recorded PBM binding z-score that is 1 or more? true (1)

Does the sequence AGTCAAGGTTCATCTAGGTAACGTAAGATATGCT have recorded PBM binding z-score that is 1 or more? true (1)

Does the sequence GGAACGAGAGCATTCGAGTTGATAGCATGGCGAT have recorded PBM binding z-score that is 1 or more? false (0)

Does the sequence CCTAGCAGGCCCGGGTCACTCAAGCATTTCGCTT have recorded PBM binding z-score that is 1 or more? false (0)

Does the sequence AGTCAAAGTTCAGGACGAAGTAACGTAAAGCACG have recorded PBM binding z-score that is 1 or more? false (0)

Does the sequence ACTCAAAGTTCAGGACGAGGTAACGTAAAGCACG have recorded PBM binding z-score that is 1 or more? false (0)

Does the sequence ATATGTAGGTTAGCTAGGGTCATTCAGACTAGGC have recorded PBM binding z-score that is 1 or more? true (1)

Does the sequence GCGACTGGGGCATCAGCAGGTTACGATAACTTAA have recorded PBM binding z-score that is 1 or more? true (1)

Does the sequence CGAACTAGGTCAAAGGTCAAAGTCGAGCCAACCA have recorded PBM binding z-score that is 1 or more? true (1)

Does the sequence GCTAGCAGGCCATTTGGGCCACTCAATGACGGGC have recorded PBM binding z-score that is 1 or more? false (0)

Does the sequence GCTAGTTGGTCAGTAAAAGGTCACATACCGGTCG have recorded PBM binding z-score that is 1 or more? true (1)

Does the sequence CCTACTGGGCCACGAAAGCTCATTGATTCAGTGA have recorded PBM binding z-score that is 1 or more? true (1)

Does the sequence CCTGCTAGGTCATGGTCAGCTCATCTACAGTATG have recorded PBM binding z-score that is 1 or more? true (1)

Does the sequence AGAACGAGGGCAATGAGTTGATAACACGGGTGGC have recorded PBM binding z-score that is 1 or more? true (1)

Does the sequence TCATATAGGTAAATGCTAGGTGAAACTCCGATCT have recorded PBM binding z-score that is 1 or more? true (1)

Does the sequence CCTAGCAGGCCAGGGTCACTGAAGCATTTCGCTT have recorded PBM binding z-score that is 1 or more? false (0)

Does the sequence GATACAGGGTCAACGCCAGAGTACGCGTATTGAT have recorded PBM binding z-score that is 1 or more? true (1)

Does the sequence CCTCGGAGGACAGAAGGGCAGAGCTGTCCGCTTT have recorded PBM binding z-score that is 1 or more? false (0)

Does the sequence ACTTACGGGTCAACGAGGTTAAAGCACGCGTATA have recorded PBM binding z-score that is 1 or more? true (1)

Does the sequence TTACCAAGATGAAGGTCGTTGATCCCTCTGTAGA have recorded PBM binding z-score that is 1 or more? false (0)

Does the sequence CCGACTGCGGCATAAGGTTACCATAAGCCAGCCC have recorded PBM binding z-score that is 1 or more? false (0)

Does the sequence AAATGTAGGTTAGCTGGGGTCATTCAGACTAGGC have recorded PBM binding z-score that is 1 or more? true (1)

Does the sequence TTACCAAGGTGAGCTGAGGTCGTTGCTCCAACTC have recorded PBM binding z-score that is 1 or more? true (1)

Does the sequence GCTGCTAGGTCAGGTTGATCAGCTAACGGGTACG have recorded PBM binding z-score that is 1 or more? true (1)

Does the sequence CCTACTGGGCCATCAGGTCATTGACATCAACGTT have recorded PBM binding z-score that is 1 or more? true (1)

Does the sequence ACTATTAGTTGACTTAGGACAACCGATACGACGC have recorded PBM binding z-score that is 1 or more? false (0)
